assay: HUVEC growth inhibition – cell-based, human, primary screen (AID 575); conditions: HUVEC proliferation, CellTiter-Glo luminescence, 72 h; at 10 µM; stronger effect = lower value;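 note: 100% = median of untreated cell wells with 0.1% DMSO on each plate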
observationType: viability (%)
Field format: number, assumed %, no unit text.

// query What value of viability has been reported for the following compound? CC1CCCCC1NC(=O)Cn1nnc(-c2ccc(Cl)cc2)n1 (stereo unspecified)
// result 72.7

// query Then Cc1ccc2[nH]cc(C(=O)CN3CCC4(CC3)OCCO4)c2c1 ?
// result 104

// query Then CCNC(=O)N1c2ccc(OCC)cc2C(C)=CC1(C)C ?
// result 106

// query Then CC(C)(C)n1cnc2cc(NS(=O)(=O)c3ccc(Br)cc3)ccc21 ?
// result 80.2

// query Then CC1(C)Cc2cccc(OCC(=O)O)c2O1 ?
// result 94.5

// query Then Cc1cc(NC(=O)COC(=O)c2cccc(S(=O)(=O)N3CCOCC3)c2)no1 ?
// result 92.4

----------
assay: 384-well plate pilot, post-Golgi transport modulator project, inhibition of yeast transport mutant growth (AID 636); conditions: absorbance 615 nm, about 18 h, stronger effect = higher value
Exercise: state measured inhibition for each of the compounds provided.
Field format: number, assumed %, no unit text.

// query What value of inhibition has been reported for the following compound? CCC(C(=O)NC1CCCC1)N(Cc1ccco1)C(=O)Cn1nnc(-c2ccc(C)cc2)n1 (centres undefined)
// result -3.33

// query Then C=CCn1c(=O)[nH]c2cc(C(=O)N3CCN(c4cc(C)ccc4C)CC3)ccc2c1=O ?
// result -6.76

// query Then CCCn1c(SCC(=O)N2CCCc3ccccc32)nnc1-c1ccccn1 ?
// result -4.67

// query Then Cc1ccc(S(=O)(=O)N2C(=O)CCC2C(=O)Nc2ccc3c(c2)OCCO3)cc1 (centres undefined) ?
// result -1.69

// query Then CCc1ccc2c(CN(CC)Cc3nc4ccccc4c(=O)[nH]3)cc(=O)oc2c1 ?
// result -1.32

// query Then O=C(O)[C@@H]1CCCN1c1ncnc2sc3c(c12)CCC3 ?
// result -6.8

// query Then O=C1C(c2ccncc2)=C(O)c2ccccc21 ?
// result -1.05

// query Then CCOc1ccccc1N1CCN(c2nc(N)c(C#N)c(CC#N)c2C#N)CC1 ?
// result -4.34

// query Then CCCCn1nc(C(=O)N2CCc3ccccc32)c2ccccc2c1=O ?
// result -0.4

----------
Exercise: state measured inhibition for each of the compounds provided.
assay: growth suppression of yeast trafficking mutant, preliminary HTS, modulators of trafficking downstream of Golgi apparatus project, 1536-format plate, OD 615 nm (AID 637); conditions: yeast transport mutant growth, absorbance 615 nm, 18 h; stronger effect = higher value
Peptide text beside a SMILES is read from it. * marks the point of attachment. Boc = CC(C)(C)OC(=O)*
Field format: number, assumed %, no unit text.

// query What value of inhibition has been reported for the following compound? Cc1nc(N2CCC(C)CC2)c2c(C)c(C(=O)O)sc2n1
// result -6.33

// query Then CCOC(=O)N1CCC(N2CC34C=CC(O3)C(C(=O)O)C4C2=O)CC1 (stereo not drawn) ?
// result -4.26

// query Then O=C(Nc1ccccc1)c1cccc(N2CCCC2=O)c1 ?
// result -9.52

// query Then CCC(=O)N[C@@H]1CC(C(C)(C)NC(=O)CC)CC=C1C (stereo partly drawn) ?
// result -0.33

// query Then CC(C)CC(NC(=O)OC(C)(C)C)C(=O)NC(C(=O)NC(C)C(N)=O)C(C)C (stereo not drawn) (Boc-Leu-Val-Ala-NH2; configuration not given here) ?
// result -3.23

// query Then O=C1CC(N2CCN(c3cccc(C(F)(F)F)c3)CC2)C(=O)N1c1ccccc1 (stereo not drawn) ?
// result -12.7

// query Then O=C(Nc1ccc(N2CCOCC2)cc1)c1cccc(S(=O)(=O)N2CCCC2)c1 ?
// result -2

// query Then COc1cc(CC(=O)NCc2ccc3c(c2)OCO3)cc(OC)c1OC ?
// result 3.45

// query Then O=c1[nH]cnc2c1nc(SCc1ccccc1)n2C1OC(CO)C(O)C1O (stereo not drawn) ?
// result 4.6

// query Then CCCCOCCCNC(=O)c1ccccc1OCC ?
// result -4.67

// query Then Cc1nc2cc(-n3ccc(=O)cc3)ccc2n1-c1ccccc1 ?
// result -3.49

// query Then Cc1noc(C)c1CSc1nnc(-c2ccncc2)n1-c1cccc(Cl)c1C ?
// result -8.25

// query Then CCN1CCN(Cc2ccc(NC(=O)Nc3ccc(SC)cc3)cc2)CC1 ?
// result 1.94

// query Then CCC(=O)Nc1cc2nn(-c3ccccc3)nc2cc1Cl ?
// result 5.9

// query Then COC(=O)c1cc(OC)c(OCc2cc(C(=O)OC)oc2C)c(OC)c1 ?
// result 1.8

// query Then O=C(Nc1ccc(F)cc1)c1cccc2c1C(=O)N(Cc1ccccn1)C2 ?
// result -3.06

// query Then Cc1cc(C)cc(-n2nnc(C(=O)NCc3ccco3)c2N)c1 ?
// result -4.92

// query Then CC(C)N(C(=O)CSc1nnc(NC(=O)C2CCC2)s1)C(C)C ?
// result -2.42

Value source: PubChem BioAssay
